Test system: G-quadruplex oligonucleotide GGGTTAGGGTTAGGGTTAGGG (3.5 repeats of the human telomeric unit)
Assay Summary: G-quadruplex stabilization, fluorescence Tm (FAM+DABCYL oligonucleotide)
Format: binding
Test Settings: increase in Tm vs reference without product (44° C. in LiCl buffer), 0.2 μM oligonucleotide, 0.1 M LiCl, 10 mM cacodylate pH 7.6
Structures can show the parent of a compound that is named as a salt.
Readout Name: G4 Tm (G4 stabilization differential in ° C., product tested at 1 µM) (°C)
Reply with just the number (in °C).

Below: 5 compounds and their reported G4 Tm (G4 stabilization differential in ° C., product tested at 1 µM).
COc1cc(C)nc2ccc(NC(=O)Nc3cccc(NC(=O)Nc4ccc5nc(C)cc(OC)c5c4)c3)cc12 [Example 8]    2.5
Cc1cc(N(C)C)c2cc(NC(=O)c3ccc(C(=O)Nc4ccc5nc(C)cc(N(C)C)c5c4)nc3)ccc2n1 [Example 19]    16
Cc1cc(N)c2cc(NC(=O)c3cccc(C(=O)Nc4ccc5nc(C)cc(N)c5c4)n3)ccc2n1 [Example 23, hydrochloride]    23
Cc1cc(N(C)C)c2cc(NC(=O)c3ccc(C(=O)Nc4ccc5nc(C)cc(N(C)C)c5c4)s3)ccc2n1 [Example 2]    10.5
CSc1c(Cl)nc(Nc2ccc3nc(C)cc(N)c3c2)nc1Nc1ccc2nc(C)cc(N)c2c1 [Example 16]    5

Return value of G4 Tm (G4 stabilization differential in ° C., product tested at 1 µM) for input Cc1cc(N)c2cc(NC(=O)c3ccc(C(=O)Nc4ccc5nc(C)cc(N)c5c4)s3)ccc2n1 [Example 3] , no commentary.
1.7

Return value of G4 Tm (G4 stabilization differential in ° C., product tested at 1 µM) for input Cc1cc(N)c2cc(NC(=O)c3cccc(C(=O)Nc4ccc5nc(C)cc(N)c5c4)c3)ccc2n1 [Example 6] , no commentary.
16
